biological target: human renin (Homo sapiens, UniProt P00797); experiment: Determination of Renin IC50 by tGFP FRET Assay; conditions: Human recombinant renin, tandem GFP substrate 650 nM, renin and compound incubated 60 minutes before substrate, pH 7.4
Sequence (P00797 67-406): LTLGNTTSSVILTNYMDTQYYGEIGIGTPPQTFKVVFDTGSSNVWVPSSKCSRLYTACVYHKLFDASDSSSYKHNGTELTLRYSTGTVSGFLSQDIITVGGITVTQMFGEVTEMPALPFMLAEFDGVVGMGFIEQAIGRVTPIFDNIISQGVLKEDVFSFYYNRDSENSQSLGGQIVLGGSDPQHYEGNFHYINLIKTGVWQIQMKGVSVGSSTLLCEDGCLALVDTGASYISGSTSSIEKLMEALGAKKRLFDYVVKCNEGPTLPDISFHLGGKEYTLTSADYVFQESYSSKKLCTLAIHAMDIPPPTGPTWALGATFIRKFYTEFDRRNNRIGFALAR
ASSAY_ENDPOINT: IC50 (µM)
Response body: numeric value in µM, unit text excluded.

Incoming: Tell me IC50 reported for COc1ccccc1COCCCOc1ccc([C@H]2CCNC[C@H]2NCc2ccc3cccnc3c2)cc1 (racemic)
Outgoing: 0.175

Incoming: Tell me IC50 reported for COc1ccccc1COCCCOc1ccc([C@H]2CCNC[C@H]2NCc2ccc3ccccc3c2)cc1 (racemic)
Outgoing: 0.087

Incoming: Tell me IC50 reported for COC(=O)c1cccc2cc(CN[C@@H]3CNCC[C@@H]3c3ccc(OCCCOCc4ccccc4OC)cc3)ccc12
Outgoing: 0.282

Incoming: Tell me IC50 reported for COc1ccccc1COCCCOc1ccc([C@H]2CCNC[C@H]2NCc2ccc3c(c2)NCCC3)cc1 (racemic)
Outgoing: 0.226

Incoming: Tell me IC50 reported for Fc1ccccc1COCCCOc1ccc([C@@H]2CCNC[C@@H]2NCc2ccc(F)c(C(F)(F)F)c2)cc1 (racemic)
Outgoing: 0.454

The measured values listed here are drawn from patent US20040204455A1.
